Hello, the source for this data is paper PMC4072508, in case you need it.

Target: T1, Mcl-1, Q07820
T1 chain: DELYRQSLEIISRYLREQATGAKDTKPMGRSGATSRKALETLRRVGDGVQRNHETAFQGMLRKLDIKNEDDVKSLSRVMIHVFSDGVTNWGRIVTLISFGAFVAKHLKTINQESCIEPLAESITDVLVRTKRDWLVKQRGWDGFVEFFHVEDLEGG
Test: peptide SPOT array, c-Myc-tagged receptor at 1 uM or 100 nM, anti-c-Myc-Cy3
// reported SPOT signal as a fraction of Bim BH3's signal on the same receptor and array for each item listed
I'd appreciate a reply containing only the number, no unit.

| binder | result |
| --- | --- |
| PSTYLAVAEELADVSGKYFDGLKQKA [RDH13] | 0.05 |
| QQMHHNAATADAQRADMLRGLSPRES [NCOR2] | 0.01 |
| ELLRLRQHWKLRKVGDKILGDLSYRS [MED17] | 0.48 |
| LFWTPLLVVLDAGLGDTEAQQTTLHP [SGCA] | 0.04 |
| PYLSKHRADRMRRLGDFLNQESFDLA [SMPD2] | 0.71 |

Query string: Answer with the recorded SPOT signal as a fraction of Bim BH3's signal on the same receptor and array of VLSRIEAGRSDKSVMDEFGISKSTFY [TIGD7] only.
Result string: 0.02

Query string: Answer with the recorded SPOT signal as a fraction of Bim BH3's signal on the same receptor and array of NNNMDVESRTMATMGDTLASRGLLDA [SEC16A] only.
Result string: 0.03

Query string: Answer with the recorded SPOT signal as a fraction of Bim BH3's signal on the same receptor and array of PSLSKELTSSLAGVGDVSFDSDSQFP [CRTC1] only.
Result string: 0.01

Query string: Answer with the recorded SPOT signal as a fraction of Bim BH3's signal on the same receptor and array of FQQTISCPEGLRLVGSEVGDRTLPGW [IRF3] only.
Result string: 0.02

Query string: Answer with the recorded SPOT signal as a fraction of Bim BH3's signal on the same receptor and array of GETDANVAKFLNRLSDYLFTLARYAA [MMAB] only.
Result string: 0.02

Query string: Answer with the recorded SPOT signal as a fraction of Bim BH3's signal on the same receptor and array of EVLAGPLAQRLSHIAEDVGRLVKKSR [ARHGAP4] only.
Result string: 0.28

Query string: Answer with the recorded SPOT signal as a fraction of Bim BH3's signal on the same receptor and array of QEQEQHVPFDIHTYGDQLVSRFPQLN [NCAPH2] only.
Result string: 0.04

Query string: Answer with the recorded SPOT signal as a fraction of Bim BH3's signal on the same receptor and array of SNKIRNLSTTLQTIATKLCRELYSKE [CLEC12A] only.
Result string: 0.17

Query string: Answer with the recorded SPOT signal as a fraction of Bim BH3's signal on the same receptor and array of WLKGDILGEKLVNLADCLCNEDLESR [RNF160] only.
Result string: 0.05
